Biological target: T1, IL-18 receptors on HEK-Blue IL-18 reporter cells (UniProt Q13478 19-541; O95256 20-599, limits assumed)
T1 sequence (looked up) 1: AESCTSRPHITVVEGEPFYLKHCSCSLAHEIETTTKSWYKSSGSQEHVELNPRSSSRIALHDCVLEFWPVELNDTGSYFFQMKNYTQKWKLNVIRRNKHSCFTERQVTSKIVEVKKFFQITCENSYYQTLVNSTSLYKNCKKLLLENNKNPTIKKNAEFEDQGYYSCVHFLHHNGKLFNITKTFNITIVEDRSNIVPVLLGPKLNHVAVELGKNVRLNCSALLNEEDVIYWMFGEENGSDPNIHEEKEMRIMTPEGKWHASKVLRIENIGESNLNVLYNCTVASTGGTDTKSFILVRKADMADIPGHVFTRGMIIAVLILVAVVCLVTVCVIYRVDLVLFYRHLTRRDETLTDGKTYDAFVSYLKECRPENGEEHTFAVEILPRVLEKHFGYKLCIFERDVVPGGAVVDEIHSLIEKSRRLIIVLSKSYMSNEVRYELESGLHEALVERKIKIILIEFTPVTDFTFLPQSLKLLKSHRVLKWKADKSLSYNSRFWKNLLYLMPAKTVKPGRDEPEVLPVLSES
T1 sequence (looked up) 2: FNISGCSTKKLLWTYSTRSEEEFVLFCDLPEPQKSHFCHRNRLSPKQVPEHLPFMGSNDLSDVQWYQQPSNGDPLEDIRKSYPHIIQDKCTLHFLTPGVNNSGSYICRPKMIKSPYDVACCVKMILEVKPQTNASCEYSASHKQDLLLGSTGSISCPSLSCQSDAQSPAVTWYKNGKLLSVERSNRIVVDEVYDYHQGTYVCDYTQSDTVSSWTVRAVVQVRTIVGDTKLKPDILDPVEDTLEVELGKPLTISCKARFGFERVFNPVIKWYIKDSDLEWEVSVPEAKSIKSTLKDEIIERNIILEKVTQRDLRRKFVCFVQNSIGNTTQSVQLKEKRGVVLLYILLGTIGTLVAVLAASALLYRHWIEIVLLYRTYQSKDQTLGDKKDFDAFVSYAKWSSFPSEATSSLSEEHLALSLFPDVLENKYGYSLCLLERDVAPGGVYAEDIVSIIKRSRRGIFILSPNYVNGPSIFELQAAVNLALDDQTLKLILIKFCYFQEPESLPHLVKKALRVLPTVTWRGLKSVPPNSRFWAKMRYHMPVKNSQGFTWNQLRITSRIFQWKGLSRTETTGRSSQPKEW
Experiment: cell-based or functional assay
observedProperty: Activity, No BP, DF-100000

Look over these answered cases.
binder	observedProperty	result
IL-18 variant G3P, E6K, D54Y, S55P, Q56H, T63S, N91S, R104Q (ligand) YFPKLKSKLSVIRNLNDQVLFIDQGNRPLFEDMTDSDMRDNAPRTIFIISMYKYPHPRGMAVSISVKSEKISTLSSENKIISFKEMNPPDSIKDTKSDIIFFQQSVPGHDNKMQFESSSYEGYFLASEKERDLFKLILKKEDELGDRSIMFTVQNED	Activity, No BP, DF-100000	1.63
IL-18 variant G3Q, E6H, D54N, S55I, T63S, N91V (ligand) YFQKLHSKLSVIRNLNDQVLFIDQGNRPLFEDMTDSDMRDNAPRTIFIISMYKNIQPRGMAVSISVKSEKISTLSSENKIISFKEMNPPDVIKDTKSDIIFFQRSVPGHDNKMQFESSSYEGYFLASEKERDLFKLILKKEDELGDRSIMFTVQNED	Activity, No BP, DF-100000	1.89
IL-18 variant G3S, E6Q, K53N, D54T, S55N, T63A, I80T, N91S (ligand) YFSKLQSKLSVIRNLNDQVLFIDQGNRPLFEDMTDSDMRDNAPRTIFIISMYNTNQPRGMAVAISVKSEKISTLSSENKTISFKEMNPPDSIKDTKSDIIFFQRSVPGHDNKMQFESSSYEGYFLASEKERDLFKLILKKEDELGDRSIMFTVQNED	Activity, No BP, DF-100000	0.24
IL-18 variant G3P, E6K, D54Y, S55P, T63S, N91S, R104Q, Q154R (ligand) YFPKLKSKLSVIRNLNDQVLFIDQGNRPLFEDMTDSDMRDNAPRTIFIISMYKYPQPRGMAVSISVKSEKISTLSSENKIISFKEMNPPDSIKDTKSDIIFFQQSVPGHDNKMQFESSSYEGYFLASEKERDLFKLILKKEDELGDRSIMFTVRNED	Activity, No BP, DF-100000	1.49
IL-18 variant G3L, E6Q, T63S, N91L, R104P (ligand) YFLKLQSKLSVIRNLNDQVLFIDQGNRPLFEDMTDSDMRDNAPRTIFIISMYKDSQPRGMAVSISVKSEKISTLSSENKIISFKEMNPPDLIKDTKSDIIFFQPSVPGHDNKMQFESSSYEGYFLASEKERDLFKLILKKEDELGDRSIMFTVQNED	Activity, No BP, DF-100000	0.15

## Input So what does the record say about Activity, No BP, DF-100000 for IL-18 variant G3Q, E6G, D54N, S55H, T63V, N91M, R104T (ligand) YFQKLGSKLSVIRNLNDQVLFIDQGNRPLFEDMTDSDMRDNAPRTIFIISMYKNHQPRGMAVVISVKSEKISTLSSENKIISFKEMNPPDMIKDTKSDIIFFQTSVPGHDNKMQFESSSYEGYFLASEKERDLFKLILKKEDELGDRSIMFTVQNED ?
## Output 1.99

## Input Name the reported Activity, No BP, DF-100000 value associated with the binder IL-18 variant G3Y, E6N, N91Y, R104S (ligand) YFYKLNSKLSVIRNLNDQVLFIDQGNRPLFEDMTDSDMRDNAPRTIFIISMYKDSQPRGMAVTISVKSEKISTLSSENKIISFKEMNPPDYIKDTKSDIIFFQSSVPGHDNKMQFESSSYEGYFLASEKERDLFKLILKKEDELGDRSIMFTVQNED
## Output 1.87
